Values compiled from ChEMBL document CHEMBL3046588.

The compounds listed here are annotated with their GI50.
assay.explanation: Cytotoxicity against Homo sapiens (human) melanoma cellsafter 48 hr by SRB assay
Format: functional
condition.description: Melanoma cell

[
  {
    "compound": "COc1ccc(OC)c(-c2cc(-c3ccccc3)nn2-c2ccc(S(N)(=O)=O)cc2)c1",
    "unit.annotation": "µM",
    "GI50": 15.3
  },
  {
    "compound": "COc1ccc(OC)c(-c2cc(-c3ccc(Cl)cc3)nn2-c2ccccc2)c1",
    "unit.annotation": "µM",
    "GI50": 34.9
  },
  {
    "compound": "NS(=O)(=O)c1ccc(-n2nc(-c3ccc(Cl)cc3)cc2-c2cc(O)ccc2O)cc1",
    "unit.annotation": "µM",
    "GI50": 14.6
  },
  {
    "compound": "CC1=NN(c2ccc(Br)cc2)C(=O)C1CC(=O)c1cc(O)ccc1O (stereo not drawn)",
    "unit.annotation": "µM",
    "GI50": 28
  },
  {
    "compound": "CC(=O)NS(=O)(=O)c1ccc(-n2nc(-c3ccc(Cl)cc3)cc2-c2cc(O)ccc2O)cc1",
    "unit.annotation": "µM",
    "GI50": 36.2
  },
  {
    "compound": "COc1ccc(OC)c(-c2cc(-c3ccc(Cl)cc3)nn2-c2ccc(S(=O)(=O)NC(C)=O)cc2)c1",
    "unit.annotation": "µM",
    "GI50": 10.7
  },
  {
    "compound": "O=C(CC1C(=O)NN(c2ccc(Br)cc2)C1=O)c1cc(O)ccc1O (stereo not drawn)",
    "unit.annotation": "µM",
    "GI50": 22
  },
  {
    "compound": "Oc1ccc(O)c(-c2cc(-c3ccc(Cl)cc3)nn2-c2ccccc2)c1",
    "unit.annotation": "µM",
    "GI50": 8.79
  }
]
